Hey, just so you know, these numbers are from PubChem BioAssay AID2060889.

Listed compounds paired with reported IC50
# Tested on: LG0567-F671-PDC complex spheroids viability
# METHOD: Anticancer human tumor LG0567-F671-PDC patient-derived lung adenocarcinoma cell line growth inhibition [RAS]
# TEST SETTINGS: curve of first compound; second compound 0.000949 µM
# From the text: RAS pathway inhibitors in Combinations in Complex Spheroids A high-throughput screen of multi-cell type tumor spheroids was designed to identify active combinations of RAS pathway inhibitors and targeted small molecules. Complex spheroids include a stromal component modeled by human endothelial cells (HUVEC) and fibroblasts modeled by human mesenchymal stem cells (MSCs). […] Compounds. […] If the clinical Cmax for an agent had not been determined, the highest concentration tested was 10 microM. […]
QUANTITY: IC50

COMPOUND	EXPERIMENTAL VALUE
CCC(CC)c1cc(NC2CCC(N)C2)n2nccc2n1 (stereo not drawn) + CCn1c(-c2cccnc2C(C)OC)c2c3cc(ccc31)N1CCOC(CC(NC(=O)C(C(C)C)N(C)C(=O)C3(F)CCN(C(=O)C#CC(C)(C)N(C)C)CC3)C(=O)N3CCCC(N3)C(=O)OCC(C)(C)C2)C1	< 31.6 nM
CC1(C)CCC(Nc2ncc(C(F)(F)F)c(-c3c[nH]c4c(P(C)(C)=O)c(C#N)ccc34)n2)CN1 (stereo not drawn) + CCn1c(-c2cc(N3CCN(C)CC3)cnc2C(C)OC)c2c3cc(ccc31)-c1csc(n1)CC(NC(=O)C1CC1C)C(=O)N1CCCC(N1)C(=O)OCC(C)(C)C2	< 0.949 nM
C[C@@H](NC(=O)c1ncnc(N)c1Cl)c1ncc(C(=O)Nc2cc(C(F)(F)F)c(Cl)cn2)s1 + CCn1c(-c2cc(N3CCN(C)CC3)cnc2C(C)OC)c2c3cc(ccc31)-c1csc(n1)CC(NC(=O)C1CC1C)C(=O)N1CCCC(N1)C(=O)OCC(C)(C)C2	< 31.6 nM
CCN1CCN(Cc2ccc(Nc3ncc(F)c(-c4cc(F)c5nc(C)n(C(C)C)c5c4)n3)nc2)CC1 + CCn1c(-c2cc(N3CCN(C)CC3)cnc2C(C)OC)c2c3cc(ccc31)-c1csc(n1)CC(NC(=O)C1CC1C)C(=O)N1CCCC(N1)C(=O)OCC(C)(C)C2	< 3.16 nM
C=CC(=O)N1CCN(c2nc(OCC3CCCN3C)nc3c(F)c(-c4nc(N)cc(C)c4C(F)(F)F)c(Cl)cc23)C(C)C1 (stereo not drawn) + CCn1c(-c2cccnc2C(C)OC)c2c3cc(ccc31)N1CCOC(CC(NC(=O)C(C(C)C)N(C)C(=O)C3(F)CCN(C(=O)C#CC(C)(C)N(C)C)CC3)C(=O)N3CCCC(N3)C(=O)OCC(C)(C)C2)C1	< 3.16 nM
CC1(C)CCC(Nc2ncc(C(F)(F)F)c(-c3c[nH]c4c(P(C)(C)=O)c(C#N)ccc34)n2)CN1 (stereo not drawn) + CCn1c(-c2cccnc2C(C)OC)c2c3cc(ccc31)N1CCOC(CC(NC(=O)C(C(C)C)N(C)C(=O)C3(F)CCN(C(=O)C#CC(C)(C)N(C)C)CC3)C(=O)N3CCCC(N3)C(=O)OCC(C)(C)C2)C1	< 0.949 nM
CC(C)n1nc(-c2ccc3oc(N)nc3c2)c2c(N)ncnc21 + CCn1c(-c2cccnc2C(C)OC)c2c3cc(ccc31)N1CCOC(CC(NC(=O)C(C(C)C)N(C)C(=O)C3(F)CCN(C(=O)C#CC(C)(C)N(C)C)CC3)C(=O)N3CCCC(N3)C(=O)OCC(C)(C)C2)C1	< 0.316 nM
C=CC(=O)N1CCN(c2nc(OCC3CCCN3C)nc3c(F)c(-c4nc(N)cc(C)c4C(F)(F)F)c(Cl)cc23)C(C)C1 (stereo not drawn) + CCn1c(-c2cc(N3CCN(C)CC3)cnc2C(C)OC)c2c3cc(ccc31)-c1csc(n1)CC(NC(=O)C1CC1C)C(=O)N1CCCC(N1)C(=O)OCC(C)(C)C2	< 3.16 nM

* * *

# System: LG0567-F671-PDC complex spheroids viability
# METHOD: Anticancer human tumor LG0567-F671-PDC cell line growth inhibition [RAS]; active means viability on the fitted dose curve at most 10% of control; inactive means the rest;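 also: spheroids exposed to compound for seven days before readout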
# TEST SETTINGS: second compound 0.01 µM; first compound 1 µM
Labels: active, inactive

COMPOUND	DISCRETE LABEL
C[C@@H](NC(=O)c1ncnc(N)c1Cl)c1ncc(C(=O)Nc2cc(C(F)(F)F)c(Cl)cn2)s1 + C=CC(=O)N1CCN(c2nc(OCC3CCCN3C)nc3c(F)c(-c4nc(N)cc(C)c4C(F)(F)F)c(Cl)cc23)C(C)C1	inactive
NC1c2ccccc2OC12CCN(c1cnc3c(N4CCCc5ncccc54)n[nH]c3n1)CC2 (stereo not drawn) + C=CC(=O)N1CCN(c2nc(OCC3CCCN3C)nc3c(F)c(-c4nc(N)cc(C)c4C(F)(F)F)c(Cl)cc23)C(C)C1	active
C=CC(=O)Nc1cc(Nc2nccc(-c3cn(C)c4ccccc34)n2)c(OC)cc1N(C)CCN(C)C + C=CC(=O)N1CCN(c2nc(OCC3CCCN3C)nc3c(F)c(-c4nc(N)cc(C)c4C(F)(F)F)c(Cl)cc23)C(C)C1	active

* * *

Listed compounds paired with reported viability, T/C
# Tested on: LG0567-F671-PDC complex spheroids viability
# METHOD: Anticancer human tumor LG0567-F671-PDC cell line growth inhibition [RAS];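 also: spheroids exposed to compound for seven days before readout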
# TEST SETTINGS: second compound 0.01 µM; first compound 0.316 µM; stronger effect = lower value

COMPOUND	UNITS OF MEASURE	viability, T/C
Nc1ccn(C2OC(CO)C(O)C2(F)F)c(=O)n1 (stereo not drawn) + C=CC(=O)N1CCN(c2nc(OCC3CCCN3C)nc3c(F)c(-c4nc(N)cc(C)c4C(F)(F)F)c(Cl)cc23)C(C)C1	%	14.3
CC1(O)CCCC1n1c(=O)c(C(F)F)cc2cnc(NC3CCN(S(C)(=O)=O)CC3)nc21 (stereo not drawn) + C=CC(=O)N1CCN(c2nc(OCC3CCCN3C)nc3c(F)c(-c4nc(N)cc(C)c4C(F)(F)F)c(Cl)cc23)C(C)C1	%	16.2
CCC(CC)c1cc(NC2CCC(N)C2)n2nccc2n1 (stereo not drawn) + C=CC(=O)N1CCN(c2nc(OCC3CCCN3C)nc3c(F)c(-c4nc(N)cc(C)c4C(F)(F)F)c(Cl)cc23)C(C)C1	%	15.6

* * *

Listed molecules paired with reported viability, T/C
# Tested on: LG0567-F671-PDC complex spheroids viability
# METHOD: Anticancer human tumor LG0567-F671-PDC cell line growth inhibition [RAS];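 also: spheroids exposed to compound for seven days before readout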
# TEST SETTINGS: second compound 0.3 µM; first compound 0.316 µM; stronger effect = lower value
QUANTITY: viability, T/C (%)

MOLECULE	EXPERIMENTAL VALUE
CC(Nc1ccc2c(c1)OCCn1cc(N3C(=O)OCC3C(F)F)nc1-2)C(N)=O (configuration not stated) + CCn1c(-c2cc(N3CCN(C)CC3)cnc2C(C)OC)c2c3cc(ccc31)-c1csc(n1)CC(NC(=O)C1CC1C)C(=O)N1CCCC(N1)C(=O)OCC(C)(C)C2	1.26
CC1(O)CCCC1n1c(=O)c(C(F)F)cc2cnc(NC3CCN(S(C)(=O)=O)CC3)nc21 (configuration not stated) + CCn1c(-c2cc(N3CCN(C)CC3)cnc2C(C)OC)c2c3cc(ccc31)-c1csc(n1)CC(NC(=O)C1CC1C)C(=O)N1CCCC(N1)C(=O)OCC(C)(C)C2	4.31

* * *

# Test system: LG0567-F671-PDC complex spheroids viability
# METHOD: Anticancer human tumor LG0567-F671-PDC cell line growth inhibition [RAS];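 also: spheroids exposed to compound for seven days before readout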;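 as to IC50: luminescence signal used as a proxy for viable cells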
# TEST SETTINGS: curve of first compound; second compound 0.01 µM
Listed compounds paired with reported IC50
QUANTITY: IC50

COMPOUND	EXPERIMENTAL VALUE
O=C(c1ccc(F)c(F)c1Nc1ccc(I)cc1F)N1CC(O)([C@@H]2CCCCN2)C1 + C=CC(=O)N1CCN(c2nc(OCC3CCCN3C)nc3c(F)c(-c4nc(N)cc(C)c4C(F)(F)F)c(Cl)cc23)C(C)C1	< 3.16 nM
Cc1nc(N2CCC3(CC2)COC(C)C3N)c(CO)nc1Sc1ccnc(N)c1Cl (stereo not drawn) + C=CC(=O)N1CCN(c2nc(OCC3CCCN3C)nc3c(F)c(-c4nc(N)cc(C)c4C(F)(F)F)c(Cl)cc23)C(C)C1	< 31.6 nM
CC1(C)CCC(Nc2ncc(C(F)(F)F)c(-c3c[nH]c4c(P(C)(C)=O)c(C#N)ccc34)n2)CN1 (stereo not drawn) + C=CC(=O)N1CCN(c2nc(OCC3CCCN3C)nc3c(F)c(-c4nc(N)cc(C)c4C(F)(F)F)c(Cl)cc23)C(C)C1	< 0.949 nM

* * *

# Tested on: LG0567-F671-PDC complex spheroids viability
# METHOD: Anticancer human tumor LG0567-F671-PDC cell line growth inhibition [RAS]; active = viability on the fitted dose curve at most 10% of control; inactive = the rest;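 also: spheroids exposed to compound for seven days before readout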
# TEST SETTINGS: second compound 10 µM; first compound 10 µM
Labels: active, inactive

COMPOUND	STUDY SYSTEM	DISCRETE LABEL
CCC(CC)c1cc(NC2CCC(N)C2)n2nccc2n1 (stereo not drawn) + C#Cc1c(F)ccc2cc(O)cc(-c3ncc4c(N5CC6CCC(C5)N6)nc(OCC56CCCN5CC(F)C6)nc4c3F)c12	LG0567-F671-PDC complex spheroids viability	active
CC(=O)OC12COC1CC(O)C1(C)C(=O)C(O)C3=C(C)C(OC(=O)C(O)C(NC(=O)OC(C)(C)C)c4ccccc4)CC(O)(C(OC(=O)c4ccccc4)C21)C3(C)C (stereo not drawn) + C#Cc1c(F)ccc2cc(O)cc(-c3ncc4c(N5CC6CCC(C5)N6)nc(OCC56CCCN5CC(F)C6)nc4c3F)c12	LG0567-F671-PDC complex spheroids viability	active
CC1(O)CCCC1n1c(=O)c(C(F)F)cc2cnc(NC3CCN(S(C)(=O)=O)CC3)nc21 (stereo not drawn) + C#Cc1c(F)ccc2cc(O)cc(-c3ncc4c(N5CC6CCC(C5)N6)nc(OCC56CCCN5CC(F)C6)nc4c3F)c12	LG0567-F671-PDC complex spheroids viability	inactive
CC(Nc1ccc2c(c1)OCCn1cc(N3C(=O)OCC3C(F)F)nc1-2)C(N)=O (stereo not drawn) + C#Cc1c(F)ccc2cc(O)cc(-c3ncc4c(N5CC6CCC(C5)N6)nc(OCC56CCCN5CC(F)C6)nc4c3F)c12	LG0567-F671-PDC complex spheroids viability	active
Cc1nc(N2CCC3(CC2)COC(C)C3N)c(CO)nc1Sc1ccnc(N)c1Cl (stereo not drawn) + C#Cc1c(F)ccc2cc(O)cc(-c3ncc4c(N5CC6CCC(C5)N6)nc(OCC56CCCN5CC(F)C6)nc4c3F)c12	LG0567-F671-PDC complex spheroids viability	active
C[C@@H](NC(=O)c1ncnc(N)c1Cl)c1ncc(C(=O)Nc2cc(C(F)(F)F)c(Cl)cn2)s1 + C#Cc1c(F)ccc2cc(O)cc(-c3ncc4c(N5CC6CCC(C5)N6)nc(OCC56CCCN5CC(F)C6)nc4c3F)c12	LG0567-F671-PDC complex spheroids viability	inactive
NC1c2ccccc2OC12CCN(c1cnc3c(N4CCCc5ncccc54)n[nH]c3n1)CC2 (stereo not drawn) + C#Cc1c(F)ccc2cc(O)cc(-c3ncc4c(N5CC6CCC(C5)N6)nc(OCC56CCCN5CC(F)C6)nc4c3F)c12	LG0567-F671-PDC complex spheroids viability	active
CC(C)NCC(C(=O)N1CCN(c2ncnc3c2C(C)CC3O)CC1)c1ccc(Cl)cc1 (stereo not drawn) + C#Cc1c(F)ccc2cc(O)cc(-c3ncc4c(N5CC6CCC(C5)N6)nc(OCC56CCCN5CC(F)C6)nc4c3F)c12	LG0567-F671-PDC complex spheroids viability	active
